For each record, write down the corresponding TGI.
- Test system: HL-60(TB) leukemia
- experimentalDetails: NCI tumour cell line growth inhibition, 48 h

Exercise: # TGI lookup, item OC1(C(F)(F)F)OCCN=C1C(F)(F)F (stereo not given)
Key: > 100 µM

Exercise: Request: `CC(C)(C)OC(=O)N1CCc2[nH][nH]c(=O)c2C1`
Key: > 100 µM

Exercise: Request: `COc1ccccc1/C(=N\OCCC(=O)O)c1cccs1`
Key: > 100 µM

Exercise: Request: `C=C(CCC/C(C)=C/C=C/[C@]1(C)CCCc2ccoc21)CC(=O)O`
Key: > 100 µM

Exercise: Request: `CN(C)c1ccc(C(C=C2c3ccccc3Sc3ccccc32)=C(C#N)C#N)cc1`
Key: > 100 µM

Exercise: Request: `CCCN=C(N)NC#N`
Key: > 100 µM

Exercise: Request: `CN1CCN(C(=O)CCNC(=O)Cc2ccc(C(=O)c3ccccc3)cc2)CC1`
Key: > 100 µM

Exercise: Request: `COc1cc(C#CC(=O)OC/C=C/c2ccc3c(c2)OCO3)cc(OC)c1OC`
Key: 62.9 µM

Exercise: Request: `CCOC(=O)c1c(NC(=O)c2cccs2)sc2c1CCCC2`
Key: > 100 µM

Exercise: Request: CC1=NNC(=O)C2CCC(=O)N12 (stereo not given)
Key: > 100 µM

Exercise: Request: `Cc1cc2c(cc1Cl)SC(NS(=O)(=O)c1ccc(Cl)cc1)=NS2(=O)=O`
Key: > 100 µM

Exercise: Request: `CC(C)c1ccccc1NC(=O)CCc1n[nH]c(=S)o1`
Key: > 89.2 µM

Exercise: Request: N#Cc1c(NN)n(C2OC(CO)C(O)C2O)c2ncnc(N)c12 (stereo not given)
Key: 0.109 µM

Exercise: Request: `O=C1/C(=C/c2ccc(Br)cc2)COc2ccc(O)c(O)c21`
Key: 3.28 µM

Exercise: Request: OCC1OC(c2cccc3cc(O)c(O)cc23)CC1O (stereo not given)
Key: > 100 µM

Exercise: Request: O=C1C2CC=CCC2C(=O)N1n1c(Cc2ccc(Cl)cc2)n[nH]c1=O (stereo not given)
Key: > 100 µM

Exercise: Request: COc1ccc(C(=O)C(c2ccc(OC)cc2)C2(O)C(=O)Nc3ccc([N+](=O)[O-])cc32)cc1 (stereo not given)
Key: > 100 µM

Exercise: Request: `COc1ccc2c3c([nH]c2c1[N+](=O)[O-])C(C)=NCC3`
Key: > 100 µM

Exercise: Request: `CN(C(=O)C1=CCC2(CC1)OCCO2)c1ccccc1OS(=O)(=O)C(F)(F)F`
Key: > 100 µM

Exercise: Request: CCN(CC)c1ccc2c(c1)OC(N)=C(C#N)C2c1cc(OC)c2c(c1)OCO2 (stereo not given)
Key: 0.141 µM

Exercise: Request: `S=C(Nc1ccccc1)N(/N=C/C=C/c1ccccc1)c1nnc(-c2ccccc2)c(-c2ccccc2)n1`
Key: 52.4 µM

Exercise: Request: COC(=O)CC(C#N)(OP1(=O)OC(c2ccccc2)C(C)N1C)c1ccccc1 (stereo not given)
Key: 58 µM

Exercise: Request: `Nc1ccc(-c2nc3cc(F)ccc3s2)cc1Cl`
Key: > 100 µM

Exercise: Request: CC(CCC=O)CCOCc1ccccc1 (stereo not given)
Key: 45.1 µM

Exercise: Request: O=C(NC(Cc1c[nH]c2ccccc12)C(=O)Nc1ccc(Br)cc1)OCc1ccccc1 (stereo not given)
Key: 22.2 µM

Exercise: Request: `CC1=C(C(=O)Nc2ccccc2)C(c2ccccc2)C(C(=O)Nc2ccccc2)=C(C)N1`
Key: > 100 µM

Exercise: Request: `COc1cc(C(=O)n2c3ccc(Br)cc3c3nc4ccccc4nc32)cc(OC)c1OC`
Key: > 100 µM

Exercise: Request: `CC1(C)COC(c2cccnc2/C=N/O)=N1`
Key: > 100 µM

Exercise: Request: CCC[CH2][Sn]1([CH2]CCC)[O]N=C(c2ccccc2)C(c2ccccc2)[O]1 (stereo not given)
Key: 1.42 µM

Exercise: Request: O/N=C/C1C(OCc2ccccc2)C(OCc2ccccc2)C(OCc2ccccc2)CN1Cc1ccccc1 (stereo not given)
Key: 80.4 µM

Exercise: Request: `CC(=O)c1cccc(NC(=O)C(=O)NNc2n[nH]c(=S)n2N)c1`
Key: 32.1 µM

Exercise: Request: `OC[C@H]1C[C@](O)(c2ccc(Cl)cc2)[C@@H](c2ccc(Cl)cc2)O1`
Key: 49.2 µM

Exercise: Request: `CN(C)N=Nc1ccc(NC=O)cc1`
Key: > 100 µM

Exercise: Request: `O=S1(=O)C[C@H](O)[C@H](O)CS1`
Key: > 100 µM

Exercise: Request: `COc1ccc(CN2C(=O)/C(=C\C(=O)c3ccc(OCCN4CCCCC4)cc3)c3ccccc32)cc1`
Key: 6.43 µM

Every entry's value here was drawn from PubChem BioAssay (NCI).
